tested on: COLO 205 colon; test: NCI tumour cell line growth inhibition, 48 h
Property Label: TGI

Provide COLO 205 colon TGI reading for CCOC(CN=C=S)OCC .
> 10 µM

Provide COLO 205 colon TGI reading for CC(NNC(=O)c1ccncc1)c1ccc(F)cc1 (configuration not stated) .
> 100 µM

Provide COLO 205 colon TGI reading for COc1ccc(/C=C(/C#N)C(N)=O)cc1OC .
> 100 µM

Provide COLO 205 colon TGI reading for CC1CNc2ccccc2N=C1NN (configuration not stated) .
> 100 µM

Provide COLO 205 colon TGI reading for c1ccc([P+](Cc2ccc(C[P+](c3ccccc3)(c3ccccc3)c3ccccc3)cc2)(c2ccccc2)c2ccccc2)cc1 .
> 100 µM

Provide COLO 205 colon TGI reading for CC(C)(Br)C(Br)CCC(C)(Br)C(Br)CO (configuration not stated) .
> 10 µM

Provide COLO 205 colon TGI reading for O=C(N/C(=C\c1ccc2c(c1)OCO2)c1nc2ccccc2[nH]1)c1ccccc1 .
> 60.3 µM
